Target: T1, human serum albumin (human, UniProt P02768 25-609)
T1 construct: Bought protein, immobilized on a CM5 chip by amine coupling; also called Human SA
Assay: SPR (Biacore 8K), albumin immobilized on CM5 chip, 25 C, 1:1 kinetic fit
REPORTED METRIC: kon (M⁻¹ s⁻¹)

1. RLN Analog 11 (other, Single-chain fusion: VHH - (G4Q)5 L1 - RLN2 B chain (desB1) - L2 of thirteen residues - RLN2 A chain (desA1-4)) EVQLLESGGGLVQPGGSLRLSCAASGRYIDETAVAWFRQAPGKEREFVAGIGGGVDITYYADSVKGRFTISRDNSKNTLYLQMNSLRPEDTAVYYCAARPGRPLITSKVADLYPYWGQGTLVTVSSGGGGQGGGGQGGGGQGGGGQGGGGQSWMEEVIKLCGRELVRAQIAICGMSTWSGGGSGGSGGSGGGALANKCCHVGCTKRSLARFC; 1.2e+06
2. RLN Analog 5 (other, Single-chain fusion: RLN2 B chain (desB1) - L2 - RLN2 A chain - (G4Q)5 L1 - VHH (C-terminal)) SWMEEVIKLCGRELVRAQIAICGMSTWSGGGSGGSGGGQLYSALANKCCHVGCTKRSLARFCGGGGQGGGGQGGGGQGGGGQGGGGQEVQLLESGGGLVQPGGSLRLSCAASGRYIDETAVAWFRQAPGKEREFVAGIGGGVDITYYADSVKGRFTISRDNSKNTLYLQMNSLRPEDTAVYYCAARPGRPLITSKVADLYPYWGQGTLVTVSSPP; 580000
3. RLN Analog 9 (other, Single-chain fusion: RLN2 B chain (desB1) - L2 - RLN2 A chain - (G4Q)5 L1 - VHH (C-terminal)) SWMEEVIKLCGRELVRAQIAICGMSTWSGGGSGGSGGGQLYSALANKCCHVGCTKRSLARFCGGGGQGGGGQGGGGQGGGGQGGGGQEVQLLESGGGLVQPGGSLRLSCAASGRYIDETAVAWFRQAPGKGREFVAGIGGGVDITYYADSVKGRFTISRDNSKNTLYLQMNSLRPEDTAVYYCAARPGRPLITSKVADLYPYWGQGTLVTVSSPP; 950000

All figures here come from patent US20260125446A1.
